- Method: amyloid nucleation score (Sup35N fusion, yeast selection) (log enrichment); library NNK3; higher = more nucleation; inactive = no reads after selection;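 also: zero at mode of non-aggregating sequences after 7 days selection at 30°C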
Experimental Endpoint: amyloid nucleation score

Consider the reported amyloid nucleation score for these substances:
>  <Substance>
LKMMSLLTSEATSMHHGVNW

>  <amyloid nucleation score>
inactive

$$$$
>  <Substance>
LRLMAGNGSSKVGPIKMPWY

>  <amyloid nucleation score>
inactive

$$$$
>  <Substance>
PSRIGSDFSRFLSEECGQLR

>  <amyloid nucleation score>
inactive

$$$$
>  <Substance>
DVVSLGIMQKGSWSGCML

>  <amyloid nucleation score>
inactive

$$$$
>  <Substance>
TPYGRIFWADDIFNSVAICL

>  <amyloid nucleation score>
inactive

$$$$

Please state, for each entry, its recorded amyloid nucleation score.
1. LFYDCELGLTSVRWLGWGRN
2. SIFSLLCVRLRGEVAPSRLM
3. YVLNKGFWGGNTLQSWRVSD
4. ICISKRYWHDIAFCIGYSNE

Found:
inactive
inactive
inactive
1.29

Please state, for each entry, its recorded amyloid nucleation score.
1. YMAVKRSWSNSMTMIHLNSV
2. LIILWRQ
3. HDAVLI

Found:
inactive
1.27
inactive

Please state, for each entry, its recorded amyloid nucleation score.
1. VKFYNLRRCVIDLMITLSRM
2. VINCSAHTEFRGLNFRVTCT
3. LRNLNK
4. WTNIRFAF
5. VNWIVLSYHYNRYDVGNMAS

Found:
["inactive", "inactive", "inactive", "inactive", 2.87]

Lookup: Read the entry RPRRTCWM and write its reported amyloid nucleation score.
Found: inactive
